Origin of values: ChEMBL document CHEMBL1833896

# Experiment summary: Intrinsic clearance in rat microsomes
# Format: ADME, Microsome
For each of the compounds below, state its CL.
Give bare numbers, in mL/min/g.

O=C(CN(CC1CC1)C(=O)c1ccc(-c2ccccn2)cc1)Nc1cc(F)cc(F)c1 | 5
COCCN(CC(=O)Nc1cc(F)cc(F)c1)C(=O)c1ccc(-c2ccccn2)cc1 | 3

// for each compound below, give its CL
1. CC(C)N(CC(=O)Nc1cc(F)cc(F)c1)C(=O)c1ccc(-c2ccccn2)cc1
2. CCC(COC)N(CC(=O)Nc1cc(F)cc(F)c1)C(=O)c1ccc(-c2ccccn2)cc1 (centres undefined)
3. O=C(CN(C(=O)c1ccc(-c2ccccn2)cc1)C1CCOC1)Nc1cc(F)cc(F)c1 (centres undefined)
4. O=C(CN(C(=O)c1ccc(-c2ccccn2)cc1)C1CCOCC1)Nc1cc(F)cc(F)c1
5. O=C(CN(C(=O)c1ccc(-c2ccccn2)cc1)C1CCCOC1)Nc1cc(F)cc(F)c1 (racemic)

Result block:
1.8
6.7
3.2
0.6
2

// for each compound below, give its CL
1. CCC(C)N(CC(=O)Nc1cc(F)cc(F)c1)C(=O)c1ccc(-c2ccccn2)cc1 (centres undefined)
2. CC(C)CN(CC(=O)Nc1cc(F)cc(F)c1)C(=O)c1ccc(-c2ccccn2)cc1

Result block:
1: 3.8; 2: 4.9
